Source of measurements: the supplement of paper PMC12764529

# Assay overview: folding stability dG unfold from trypsin proteolysis; higher = more stable
Metric: folding stability dG unfold (kcal/mol)
# unit: kcal/mol | format: bare number

Known results for sequences:
- SAGGSAGGSDVSEEELRAIAEEIAAELGLSDITVEVEKLPTAVVRITITNPATGETIEIEVPESAGGSAGGS [r12_1000_JUSTAS]: 1.75
- SAGGSAGGSAGGMKLVITLKDPNSDKTYTVTLPIEDKSPEEVIQEIEEKLGVEVVEVKPESAGGSAGGSAGG [r7_590_JUSTAS]: 2.06
- SAGGSAGGSKFPKKFTVEVYTLTKKLKTPEGKLKTETTVLIEKTEEIKPLPEIDEERVEKVLLSAGGSAGGS [r12_1060_JUSTAS]: 0.166
- SAGGSAGGSAGGKTITLPPGMSEEELLEALKKAKPGDTITIEVDGKTYTLKVENGKITLTSAGGSAGGSAGG [r7_560_TrROS_Hall]: 2.31
- SAGGMVVVKIRIEREVDGKVEEVELVLEVELDEDGKVSAEELKALLKELLPENVKITEIEVVEPGEEPSAGG [r13_504_TrROS_Hall]: 4.76
- SSVTLVLEKPLPSGKRLVVVTTLKPEPARGTVRLDVTTTTYTFSKTENGEITTSSTTSTSTETVSPEELLSA [r9_1137_JUSTAS]: 2.53

Continue with the next sequence.
# folding stability dG unfold lookup, item SEKVKITIEVWRPPGWWYVKIKLPDNGQEITYPFDSAEDFKEQIKKWLGLPPDNVKITDVEVYPMPPDDFSA [r9_909_TrROS] 1.82
